experimental_system: Estrogen receptor (Homo sapiens) (UniProt P03372)
Sequence (P03372 whole entry, looked up): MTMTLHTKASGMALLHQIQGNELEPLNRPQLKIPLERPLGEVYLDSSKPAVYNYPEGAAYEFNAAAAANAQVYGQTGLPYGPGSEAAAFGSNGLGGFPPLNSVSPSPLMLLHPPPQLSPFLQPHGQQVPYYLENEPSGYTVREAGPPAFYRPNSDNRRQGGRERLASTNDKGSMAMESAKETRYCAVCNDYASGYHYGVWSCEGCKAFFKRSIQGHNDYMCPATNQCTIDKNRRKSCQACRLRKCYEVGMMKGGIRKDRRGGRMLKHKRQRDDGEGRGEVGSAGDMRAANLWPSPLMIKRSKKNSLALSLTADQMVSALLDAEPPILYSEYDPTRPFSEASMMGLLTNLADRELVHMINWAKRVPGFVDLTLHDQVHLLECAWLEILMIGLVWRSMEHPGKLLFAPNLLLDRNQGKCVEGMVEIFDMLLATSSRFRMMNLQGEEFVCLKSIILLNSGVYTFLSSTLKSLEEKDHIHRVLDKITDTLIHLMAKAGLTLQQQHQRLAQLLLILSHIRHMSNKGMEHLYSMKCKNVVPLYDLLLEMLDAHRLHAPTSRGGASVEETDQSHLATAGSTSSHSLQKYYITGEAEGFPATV
procedure_text: qHTS assay to identify small molecule antagonists of the estrogen receptor alpha (ER-alpha) signaling pathway (AID 743069)
run_parameters: HEK293 ER-alpha-UAS-bla, beta-lactamase ratio, antagonist mode; series mostly up to 69.4 µM
Calls of active or inactive are those of the source. Calls come from the whole dose curve; as a rule, active = well fitted curve in the direction sought with a large enough effect in the signal ratio in the repeat runs (not every such curve was filed as active); inconclusive = weak or mixed curves, or effect the other way; inactive = no such curve, though single readings can be large or run the other way; the % refers to the signal ratio.
Please state which outcome applies, choosing from active, inactive

Reference set, count: 5
COC(=O)C1=C(C)NC(C)=C(C(=O)OCCN2CCN(C(c3ccccc3)c3ccccc3)CC2)C1c1cccc([N+](=O)[O-])c1 (stereo not given) : active
Cc1cc(C)c(/C=C2\C(=O)Nc3ccccc32)[nH]1 : active
CCCCOC(=O)CO : inactive
Cl[Si](Cl)(c1ccccc1)c1ccccc1 : inactive
OC12N=C(c3ccccc3)SC1Cc1cc(Cl)ccc12 (stereo not given) : active

Exercise: Could you check what this test reported for Cc1c(F)c(N2CCNC(C)C2)cc2c1c(=O)c(C(=O)O)cn2C1CC1 (stereo not given) ?
Solution: inactive

Exercise: Could you check what this test reported for Cc1c(C)c2c(c(C)c1O)CC[C@@](C)(CCC[C@H](C)CCC[C@H](C)CCCC(C)C)O2 ?
Solution: inactive

Exercise: Could you check what this test reported for O=C(c1ccc(O)c(O)c1)c1ccc(O)cc1O ?
Solution: active

Exercise: Could you check what this test reported for O[C@@H]([C@H](O)[C@H](O)CBr)[C@H](O)CBr ?
Solution: inactive

Exercise: Could you check what this test reported for O=C(Oc1ccccc1)Oc1ccccc1 ?
Solution: inactive

Exercise: Could you check what this test reported for CCCCCCCCCCCC(=O)OCC(C)OC(=O)CCCCC(=O)O (stereo not given) ?
Solution: inactive

Exercise: Could you check what this test reported for Clc1nnc(Cl)c2ccccc12 ?
Solution: inactive

Exercise: Could you check what this test reported for CC(C)CCOC(=O)/C=C/c1ccccc1 ?
Solution: inactive

Exercise: Could you check what this test reported for CN1CCCCC1CCN1c2ccccc2Sc2ccc(S(C)=O)cc21 (stereo not given) ?
Solution: inactive

Data credit: PubChem BioAssay (Tox21)
